- Test system: HepG2
- measurement_protocol: cytotoxicity call (relative viability < 0.9)
- experimental_parameters: 10 µM
Hit rate of the full screen: of about 39,000 compounds, about 3,300 (8.5%) were called active. This excerpt belongs to a sample that is enriched for actives.
Pick from active, inactive when you respond.

Use these answered entries as a reference point.
>>> df
                                 cpd_smiles  target_entity  group_label
0  O=C(C[C@H]1CC[C@@H]2[C@H](COC[C@H](O)CN2C(=O)C2CC2)O1)NCc1ccncc1          HepG2     inactive
1  Cc1ccc(S(=O)(=O)N(C)C[C@H]2OCCCC[C@H](C)Oc3ccc(NC(=O)NC4CCCCC4)cc3C(=O)N([C@H](C)CO)C[C@H]2C)cc1          HepG2     inactive
2  COc1ccc(S(=O)(=O)N(C)C[C@H]2Oc3c(NS(=O)(=O)c4cn(C)cn4)cccc3C(=O)N([C@H](C)CO)C[C@@H]2C)cc1          HepG2     inactive
3  C[C@H]1CCCCO[C@H](CN(C)Cc2ccccc2)[C@@H](C)CN([C@@H](C)CO)C(=O)c2cc(NC(=O)c3ccncc3)ccc2O1          HepG2     inactive
4  O=C(Cc1ccccn1)NCC[C@@H]1CC[C@@H](NC(=O)CN2CCOCC2)[C@@H](CO)O1          HepG2     inactive
5  Cc1ccc(S(=O)(=O)N(C)C[C@H]2OCCCC[C@@H](C)Oc3ccc(NC(=O)NC4CCCCC4)cc3C(=O)N([C@H](C)CO)C[C@@H]2C)cc1          HepG2     inactive

## Input Status in this test for Nc1ccn(C[C@@H](CO)OCP(=O)(O)O)c(=O)n1 ?
## Output inactive

## Input Follow-up entry: Cc1noc(C)c1S(=O)(=O)N(C)C[C@@H]1OCCCC[C@@H](C)Oc2ccc(NC(=O)Nc3ccc(F)cc3)cc2C(=O)N([C@H](C)CO)C[C@@H]1C
## Output inactive

## Input Another molecule to look at: C[C@@H]1CCCCO[C@@H](CN(C)C(=O)c2ccncc2)[C@H](C)CN([C@@H](C)CO)C(=O)c2cc(NC(=O)C3CCCCC3)ccc2O1
## Output inactive

## Input Next entry: C[C@@H]1CN([C@@H](C)CO)C(=O)c2cc(NC(=O)CCCN(C)C)ccc2O[C@@H](C)CCCCO[C@@H]1CN(C)C
## Output inactive

## Input Could you do the same for C[C@@H]1CCCCO[C@H](CN(C)S(=O)(=O)c2ccccc2)[C@@H](C)CN([C@H](C)CO)C(=O)c2cc(NC(=O)NC3CCCCC3)ccc2O1 , please?
## Output inactive

## Input Item: Cc1ccc(S(=O)(=O)N(C)C[C@@H]2OCCCC[C@@H](C)Oc3ccc(NC(=O)NC4CCCCC4)cc3C(=O)N([C@@H](C)CO)C[C@@H]2C)cc1
## Output inactive

## Input Cool, now Cc1ccc(S(=O)(=O)N(C)C[C@@H]2OCCCC[C@H](C)Oc3ccc(NC(=O)NC4CCCCC4)cc3C(=O)N([C@@H](C)CO)C[C@H]2C)cc1
## Output active

## Input Same question, C[C@H](CO)N1C[C@H](C)[C@H](CN(C)S(=O)(=O)c2ccccc2)OCCCC[C@H](C)Oc2ccc(NC(=O)NC3CCCCC3)cc2C1=O this time
## Output active
